read-out: urokinase plasminogen activator (uPA), PLAU (gene 5328); assay: BSK_KF3CT_uPA: BioMAP Diversity Plus: KF3CT Assay for urokinase plasminogen activator (uPA) Biomarker Activity (AID 2283075); conditions: primary human keratinocytes with fibroblasts; actives raise or lower the signal
The source made the active and inactive calls. The calls were made as follows: active = hit-call score of the fitted dose curve at least 0.9, where 1 is the maximum; inactive = score below 0.9.
MEASURE: outcome

Take a look at these entries with their results.
Qu. # lookup: outcome of Cc1ccc(O)c(C)c1
Ans. inactive

Qu. Quick one: outcome of C=CC(N)=O ?
Ans. inactive

Qu. Could you tell me which outcome is on file for CN(C)c1nc(=O)n(C2CCCCC2)c(=O)n1C ?
Ans. inactive

Qu. Requested field: outcome. Item: CCOCCOC(C)=O
Ans. inactive

Qu. Any idea what its outcome is? The compound is ClC1=C(Cl)[C@]2(Cl)[C@@H]3[C@@H]4C[C@@H]([C@H]5O[C@@H]45)[C@@H]3[C@@]1(Cl)C2(Cl)Cl
Ans. inactive

Qu. Fill blank: measured outcome of the compound O=C(NC(=O)c1c(F)cccc1F)Nc1cc(Cl)c(OC(F)(F)C(F)F)c(Cl)c1 is ____.
Ans. inactive

Qu. GET /values?readout=outcome&item= c1ccc(-c2ccccc2)cc1
Ans. inactive

Qu. Which outcome is listed for ClC1=C(Cl)[C@]2(Cl)[C@@H]3[C@H]4C[C@H]([C@@H]5O[C@H]45)[C@@H]3[C@@]1(Cl)C2(Cl)Cl ?
Ans. inactive

Qu. For c1cc2ccc3cccc4ccc(c1)c2c34 , what is its reported outcome?
Ans. inactive

Qu. # get_value(readout='outcome', item= Nc1ccc(-c2ccc(N)cc2)cc1 )
Ans. inactive

New cases:
Qu. Sample O=C(N[C@H]1CN2CCC1CC2)c1cc2ccoc2cn1 — what was its outcome?
Ans. inactive

Qu. Form field: reported outcome of C=CC(=O)NCNC(=O)C=C
Ans. inactive

====

molecular target: human Retinoid X Receptor beta (RXRb), RXRB (gene 6257); test: ATG_RXRb_TRANS: Attagene TRANS-FACTORIAL HepG2 Assay for human Retinoid X Receptor beta (RXRb) (AID 2283013)
Inconclusive results are not listed. Calls of active or inactive are those of the source. The calls were made as follows: active = hit-call score of the fitted dose curve at least 0.9, where 1 is the maximum; inconclusive = response in the unintended direction; inactive = score below 0.9.
Respond with a class label; see yes (1) for active, no (0) for inactive

Qu. Test call for this compound, please: O=S(=O)(O)C(F)(F)C(F)(F)C(F)(F)C(F)(F)C(F)(F)C(F)(F)F
Ans. no (0)

***
Qu. What call does the record list for OCC(O)CO ?
Ans. no (0)

Qu. State the result this test recorded for ClC1=C(Cl)[C@]2(Cl)[C@@H]3[C@H]4C[C@H]([C@@H]5O[C@H]45)[C@@H]3[C@@]1(Cl)C2(Cl)Cl .
Ans. no (0)

====

read-out: Potassium channel subfamily K member 1 (KCNK1), KCNK1 (gene 3775); experiment: LTEA_HepaRG_KCNK1: Life Technologies and Expression Analysis (LTEA) Assay for Potassium channel subfamily K member 1 (KCNK1) using HepaRG (AID 2283511); conditions: mRNA level, 48 h; actives raise or lower the signal
Calls of active or inactive are those of the source. The calls were made as follows: active = hit-call score of the fitted dose curve at least 0.9, where 1 is the maximum; inactive = score below 0.9.
Give your call using only these classes: active, inactive

Qu. Which outcome was entered for the compound CO/C=C(/C(=O)OC)c1ccccc1COc1cccc(C(F)(F)F)n1 in this test?
Ans. active

New cases:
Qu. Dear all, I need the recorded test outcome for C[C@]12CCC(=O)C=C1CC[C@@H]1[C@@H]2CC[C@]2(C)C(=O)CC[C@@H]12 , thank you.
Ans. inactive

Qu. Hi team, can someone confirm the assay call for ClC1=C(Cl)[C@]2(Cl)[C@@H]3[C@@H](Cl)[C@H]4O[C@H]4[C@@H]3C1(Cl)C2(Cl)Cl ?
Ans. inactive

Qu. Outcome? COS(=O)(=O)OC
Ans. inactive

Qu. Call for entry Cc1cc(O)ccc1Cl :
Ans. inactive

Qu. Called result for Cc1cc(-c2ccc(N)c(C)c2)ccc1N
Ans. inactive

====

experiment: ACEA_AR_antagonist_AUC_viability: ACEA Biosciences xCELLigence Real-Time Cell Analysis on Androgen Receptor Antagonism for Viability (AID 2283776);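 also: 22Rv1 human prostate cancer cells growing on impedance electrode plates; area under impedance growth curve at 80 h after dosing as viability; hits lower the growth signal relative to DMSO meaning cytotoxicity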
Records with an inconclusive call do not appear. Activity calls are given as the source filed them. The calls were made as follows: active = hit-call score of the fitted dose curve at least 0.9, where 1 is the maximum; inconclusive = response in the unintended direction; inactive = score below 0.9.
API: response.call in y for active, n for inactive

Below, 8 molecules whose answers are already recorded.
Qu. What is the recorded call for this molecule in the test? CC(C)(O)C(=O)Nc1ccc([N+](=O)[O-])c(C(F)(F)F)c1
Ans. y

Qu. // param item: CCOCCOC(C)=O ; yields the recorded call
Ans. n

Qu. Please indicate how the test categorized NS(=O)(=O)C(F)(F)C(F)(F)C(F)(F)C(F)(F)C(F)(F)C(F)(F)C(F)(F)C(F)(F)F .
Ans. y

Qu. Fill in: this test's call for C=CC(=O)NCNC(=O)C=C is ___
Ans. n

Qu. Status in this test for O=C(N[C@H]1CN2CCC1CC2)c1cc2ccoc2cn1 ?
Ans. n

Qu. # fetch the recorded call for CCCCCCCCOC(=O)c1ccccc1C(=O)OCCCCCCCC here
Ans. n

Qu. What outcome does the record of this test show for O=C(O)C(F)(F)C(F)(F)C(F)(F)C(F)(F)C(F)(F)C(F)(F)C(F)(F)C(F)(F)C(F)(F)F ?
Ans. y

Qu. State the result this test recorded for O=S(=O)(O)C(F)(F)C(F)(F)C(F)(F)C(F)(F)C(F)(F)C(F)(F)F .
Ans. n

More entries:
Qu. Name the outcome recorded for CO/C=C(/C(=O)OC)c1ccccc1COc1cccc(C(F)(F)F)n1 in the assay.
Ans. y

Qu. # outcome recorded in this test, key = Nc1ccc(-c2ccc(N)cc2)cc1
Ans. n

Qu. How did this test come out for COS(=O)(=O)OC ?
Ans. n

Qu. Please indicate how the test categorized Nn1cnnc1 .
Ans. n

Qu. Outcome logged for C=CC(N)=O in this assay:
Ans. n

====

assay: ATG_E_Box_CIS: Attagene CIS-FACTORIAL HepG2 Assay for human Enhancer Box (E-box) (AID 2282936); details: HepG2 E-box cis-reporter transcription, actives raise or lower the signal
Activity calls are given as the source filed them. Rule for the calls: active = hit-call score of the fitted dose curve at least 0.9, where 1 is the maximum; inactive = score below 0.9.
// classify into Yes (active), No (inactive)

Qu. Recorded test outcome, item CC(C)(O)C(=O)Nc1ccc([N+](=O)[O-])c(C(F)(F)F)c1
Ans. No

---
Qu. Tell me the assay call for CC#Cc1cc(C)nc(Nc2ccccc2)n1 please.
Ans. Yes

Qu. GET /call?item= CCOC(=O)C(O)(c1ccc(Cl)cc1)c1ccc(Cl)cc1 returns the recorded outcome of this test.
Ans. No

Qu. Outcome? Cc1ccc(O)c(C)c1
Ans. No

Qu. What did this assay record as the result for Nn1cnnc1 ?
Ans. No

Qu. Write down the call the test reported for this compound. Item: CCCCCCCCOC(=O)c1ccccc1C(=O)OCCCCCCCC
Ans. No

Qu. Please state the recorded outcome for this compound: CC(C)C(=O)OCC(C)(C)C(OC(=O)C(C)C)C(C)C (configuration not stated)
Ans. No

====

read-out: solute carrier (SLC22A1), SLC22A1 (gene 6580); test: LTEA_HepaRG_SLC22A1: Life Technologies and Expression Analysis (LTEA) Assay for solute carrier (SLC22A1) using HepaRG (AID 2283524); settings: mRNA level, 48 h; actives raise or lower the signal
The source made the active and inactive calls. How the source made its calls: active means hit-call score of the fitted dose curve at least 0.9, where 1 is the maximum; inactive means score below 0.9.
Log the outcome using a class from 1.0 for active, 0.0 for inactive

Example results:
Qu. State the result this test recorded for ClC1=C(Cl)[C@]2(Cl)[C@@H]3[C@H]4C[C@H]([C@@H]5O[C@H]45)[C@@H]3[C@@]1(Cl)C2(Cl)Cl .
Ans. 1.0

Qu. Would you mind telling me which call this test gave NS(=O)(=O)C(F)(F)C(F)(F)C(F)(F)C(F)(F)C(F)(F)C(F)(F)C(F)(F)C(F)(F)F ?
Ans. 1.0

Qu. Per the assay record, what outcome was assigned to Cc1ccccc1[N+](=O)[O-] ?
Ans. 0.0

Qu. Recorded call for C[C@]12CCC(=O)C=C1CC[C@@H]1[C@@H]2CC[C@@]2(C)[C@H]1CC[C@]2(C)O ?
Ans. 1.0

Qu. Hello, I am checking results. What call was entered for O=S(=O)(O)C(F)(F)C(F)(F)C(F)(F)C(F)(F)F ?
Ans. 0.0

Qu. # lookup: test call for CN(C)CCO
Ans. 0.0

Qu. What call does the record list for CCCN(CCC)N=O ?
Ans. 0.0

Qu. Give the logged outcome of this assay for the following compound: c1ccc(-c2ccccc2)cc1
Ans. 0.0

Qu. Hello, I am checking results. What call was entered for Cc1ccccc1O ?
Ans. 0.0

Qu. Call for entry Nn1cnnc1 :
Ans. 0.0

Continuing:
Qu. Identify the outcome logged in this assay for the compound shown: CC(c1ccc(O)cc1)(c1ccc(O)cc1)c1ccc(O)cc1
Ans. 1.0

Qu. Assay result, entry CC#Cc1cc(C)nc(Nc2ccccc2)n1 — outcome?
Ans. 1.0

Qu. Field: outcome | Entry: Nc1ccc(-c2ccc(N)cc2)cc1
Ans. 0.0

Qu. What outcome does the record of this test show for CCCCCCOC(=O)c1ccccc1C(=O)OCCCCCC ?
Ans. 1.0

Qu. # lookup: test call for Cc1cccc(C)c1N
Ans. 0.0
